# test-target: Wee1-like protein kinase (Homo sapiens)
# protocol-text: Wee1 degradation inhibitors, primary screen, cell-based, HeLa, Wee1K328M-luciferase, luminescence (AID 1321);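 also: cells exposed to compound for 20 h before luminescence read; 0% = DMSO alone and 100% = MG132 at 30 µM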
# condition-parameters: HeLa Luc-Wee1K328M stability, at 5 µM, 100% = proteasome inhibitor MG132 effect
In all, about 220,000 compounds went through this assay and about 2,600 (1.2%) were called active.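 The calls were made as follows: active = activation above the mean of all tested compounds plus 3 SD, set per screening run (cut at about 8.8% in these data); inactive = the rest.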 The full list was thinned out, with actives kept by preference.
Outcome codes: active, inactive

{"compound": "CC(=O)Nc1nc(C)c(-c2csc(Nc3ccc(S(N)(=O)=O)cc3)n2)s1", "test-target": "Wee1-like protein kinase (Homo sapiens)", "assigned-class": "inactive"}
{"compound": "S=C(NNC(=S)NC1CC2CCC1C2)NC1CC2C=CC1C2 (stereo not given)", "test-target": "Wee1-like protein kinase (Homo sapiens)", "assigned-class": "inactive"}
{"compound": "CCN(CC)S(=O)(=O)c1ccc(NC(=O)CN(c2cccc(F)c2)S(C)(=O)=O)cc1", "test-target": "Wee1-like protein kinase (Homo sapiens)", "assigned-class": "inactive"}
{"compound": "Cc1nc(-c2nnc(SCC(=O)Nc3cc(C(F)(F)F)cc(C(F)(F)F)c3)n2C)cs1", "test-target": "Wee1-like protein kinase (Homo sapiens)", "assigned-class": "inactive"}
{"compound": "Cc1[nH]n(C)c(=O)c1N=Nc1ccc(S(C)(=O)=O)cc1", "test-target": "Wee1-like protein kinase (Homo sapiens)", "assigned-class": "inactive"}
{"compound": "S=C(NNC(=S)NC1CC2C=CC1C2)NC1CC2C=CC1C2 (stereo not given)", "test-target": "Wee1-like protein kinase (Homo sapiens)", "assigned-class": "inactive"}
{"compound": "Cc1ccc(S(=O)(=O)NC(=O)Nc2nc(-c3ccc(F)c(F)c3)cs2)cc1", "test-target": "Wee1-like protein kinase (Homo sapiens)", "assigned-class": "inactive"}
{"compound": "COc1cccc(N(CC(=O)Nc2cccc(F)c2)S(C)(=O)=O)c1", "test-target": "Wee1-like protein kinase (Homo sapiens)", "assigned-class": "active"}
{"compound": "COc1ccc(C(C)=O)cc1COc1ccc(Cl)c(C)c1", "test-target": "Wee1-like protein kinase (Homo sapiens)", "assigned-class": "inactive"}
{"compound": "CCn1c(=O)c([N+](=O)[O-])c(NCc2ccc3c(c2)OCO3)c2ccccc21", "test-target": "Wee1-like protein kinase (Homo sapiens)", "assigned-class": "inactive"}

###

# test-target: Wee1-like protein kinase (Homo sapiens) (UniProt P30291)
# protocol-text: Wee1 degradation inhibitors, primary screen, cell-based, HeLa, Wee1K328M-luciferase, luminescence (AID 1321);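 also: cells exposed to compound for 20 h before luminescence read; 0% = DMSO alone and 100% = MG132 at 30 µM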
# condition-parameters: HeLa Luc-Wee1K328M stability, at 5 µM, stronger effect = higher value, 100% = proteasome inhibitor MG132 effect
Among all 220,000 compounds or so, about 2,600 (1.2%) were called active. Many of the other results were omitted from the sample, so actives are more common in it than they were.
Each record here notes measured reporter increase.

{"molecule": "CC(=O)NC(=S)Nc1ccc(NC(=S)NC(=O)c2ccc([N+](=O)[O-])cc2)cc1", "reporter increase": "1.61% (inactive)"}
{"molecule": "COc1ccc(N(Cc2ccccc2)S(=O)(=O)c2cccc(C(=O)O)c2)cc1", "reporter increase": "0.36% (inactive)"}
{"molecule": "COC(=O)CC1=NN(c2ccccc2)C(=O)C1", "reporter increase": "-1.29% (inactive)"}
{"molecule": "OCCC1CN(Cc2ccc(Oc3ncccn3)cc2)CCN1CCc1ccccc1 (stereo unspecified)", "reporter increase": "-0.52% (inactive)"}
{"molecule": "O=C(NCc1ccccc1)c1ccc(CNc2c(N3CCCC3)c(=O)c2=O)cc1", "reporter increase": "-2.66% (inactive)"}
{"molecule": "OCCC1CN(Cc2cccc(O)c2)CCN1CCc1ccccc1 (stereo unspecified)", "reporter increase": "-3.15% (inactive)"}
{"molecule": "CN(C)S(=O)(=O)c1cccc(NC(=S)N/N=C/C(=O)c2ccccc2)c1", "reporter increase": "-1.91% (inactive)"}
{"molecule": "O=C(CCc1ccccc1)NNc1ccc(F)cc1", "reporter increase": "1.37% (inactive)"}
{"molecule": "CCN(CC)C(=O)CSC(Nc1cccc(F)c1)=C(C#N)C#N", "reporter increase": "-3.44% (inactive)"}
{"molecule": "Cc1cc(C)cc(NC(=O)C2CCN(c3nc(C)cc(C)n3)CC2)c1", "reporter increase": "-2.65% (inactive)"}
{"molecule": "OCCC1CN(Cc2cnc(-c3ccccc3)s2)CCN1CCc1ccccc1 (stereo unspecified)", "reporter increase": "9.46% (active)"}

###

Each record here notes measured reporter increase.
# test-target: Wee1-like protein kinase (Homo sapiens)
# protocol-text: Wee1 degradation inhibitors, primary screen, cell-based, HeLa, Wee1K328M-luciferase, luminescence (AID 1321);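 also: cells exposed to compound for 20 h before luminescence read; 0% = DMSO alone and 100% = MG132 at 30 µM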
# condition-parameters: HeLa Luc-Wee1K328M stability, at 5 µM, stronger effect = higher value, 100% = proteasome inhibitor MG132 effect
Hit rate of the full screen: of about 220,000 compounds, about 2,600 (1.2%) were called active. This excerpt belongs to a sample that is enriched for actives.
measured-metric: reporter increase (%)

{"molecule": "O=C(NCCN1CCOCC1)c1c(F)c(F)c(F)c(F)c1F", "measured-metric": "reporter increase", "quantity-unit": "%", "observed-value": -1.64}
{"molecule": "O=C(Nc1ccccc1)N1CCN(Cc2ccccc2)CC1", "measured-metric": "reporter increase", "quantity-unit": "%", "observed-value": 4.02}
{"molecule": "O=C(NCC1CCCO1)c1ccccc1-c1nc(-c2ccccc2Cl)no1 (stereo not drawn)", "measured-metric": "reporter increase", "quantity-unit": "%", "observed-value": -0.52}
{"molecule": "CS/C(=C\\C(=O)c1ccco1)Nc1ccccc1Cl", "measured-metric": "reporter increase", "quantity-unit": "%", "observed-value": 6.17}
{"molecule": "COc1cc(C(=O)Nn2c(O)c(C3=c4ccccc4=NC3=O)sc2=S)ccc1O", "measured-metric": "reporter increase", "quantity-unit": "%", "observed-value": -2.51}
{"molecule": "O=C1N=C(N2CCc3ccccc3C2)S/C1=C\\c1ccc(O)cc1", "measured-metric": "reporter increase", "quantity-unit": "%", "observed-value": -2.98}
{"molecule": "CSc1nnc(-c2ccc(C(F)(F)F)cn2)o1", "measured-metric": "reporter increase", "quantity-unit": "%", "observed-value": -1.5}
{"molecule": "Cc1ccc(CC2CC(=O)N(c3nc(C)cc(C)n3)C2=O)cc1 (stereo not drawn)", "measured-metric": "reporter increase", "quantity-unit": "%", "observed-value": -2.45}
{"molecule": "CSc1nc2sc3c(c2c(=O)[nH]1)CCc1ccccc1-3", "measured-metric": "reporter increase", "quantity-unit": "%", "observed-value": -0.01}
{"molecule": "Cc1cccc(NC(=O)/C=C/c2ccc3c(c2)OCO3)n1", "measured-metric": "reporter increase", "quantity-unit": "%", "observed-value": 9.34}
{"molecule": "COc1ccccc1NC(=O)c1ccc(C)s1", "measured-metric": "reporter increase", "quantity-unit": "%", "observed-value": -0.54}
{"molecule": "O=C(c1c(Cl)cccc1Cl)N1CCN(c2cccc3[nH]ccc23)CC1", "measured-metric": "reporter increase", "quantity-unit": "%", "observed-value": 0.73}
{"molecule": "CCC(C)Cn1c(O)cc2nn(-c3nc4ccccc4s3)c(=O)c-2c1C (stereo not drawn)", "measured-metric": "reporter increase", "quantity-unit": "%", "observed-value": -4.96}
{"molecule": "COc1ccc(CN(Cc2ccc(OC)cc2)C(=O)c2cccs2)cc1", "measured-metric": "reporter increase", "quantity-unit": "%", "observed-value": 1.79}
{"molecule": "Cc1cc(=O)[nH]c(N/N=C/c2ccc3c(c2)OCCO3)n1", "measured-metric": "reporter increase", "quantity-unit": "%", "observed-value": 3.95}
{"molecule": "COc1ccccc1NC(=O)C1=C(C)NC(=O)NC1c1ccc(C)s1 (stereo not drawn)", "measured-metric": "reporter increase", "quantity-unit": "%", "observed-value": 9.03}
{"molecule": "COCCCNC(=O)c1c(F)c(F)c(F)c(F)c1F", "measured-metric": "reporter increase", "quantity-unit": "%", "observed-value": 9.02}
{"molecule": "O=C(Nc1cccnc1)c1cc([N+](=O)[O-])ccc1Cl", "measured-metric": "reporter increase", "quantity-unit": "%", "observed-value": -1.81}
{"molecule": "[O-][N+]12CCCCC1CCCC2CO (stereo not drawn)", "measured-metric": "reporter increase", "quantity-unit": "%", "observed-value": -2.55}
{"molecule": "OCCN1CCN(C(=S)c2ccc(-c3ccccc3)cc2)CC1", "measured-metric": "reporter increase", "quantity-unit": "%", "observed-value": -3.59}
{"molecule": "Cc1cc(C)c2c(n1)nn1c(N3CCN(c4cccc(Cl)c4)CC3)cc(C)nc21", "measured-metric": "reporter increase", "quantity-unit": "%", "observed-value": 14.1}
{"molecule": "CCc1c(C)sc(NC(=O)/C=C/c2ccc3c(c2)OCO3)c1C(=O)OC", "measured-metric": "reporter increase", "quantity-unit": "%", "observed-value": -2.27}
{"molecule": "Cc1ccc(C(=O)OC(C)CN2CCOCC2)cc1 (stereo not drawn)", "measured-metric": "reporter increase", "quantity-unit": "%", "observed-value": 2.34}
{"molecule": "CC#CC[N+](C)(C)CCCCCC", "measured-metric": "reporter increase", "quantity-unit": "%", "observed-value": 3.56}
{"molecule": "COCCCNC(=S)NC(=O)c1ccccc1", "measured-metric": "reporter increase", "quantity-unit": "%", "observed-value": 1.37}
{"molecule": "Cc1ccc(Nc2nc(N)nc(CN3CCN(Cc4ccccc4)CC3)n2)cc1Cl", "measured-metric": "reporter increase", "quantity-unit": "%", "observed-value": 4.72}
{"molecule": "CCCc1c(C(=O)O)cnn1-c1ccc(Cl)cc1", "measured-metric": "reporter increase", "quantity-unit": "%", "observed-value": 1.14}
{"molecule": "COc1ccc(CCNS(=O)(=O)c2cccc3cccnc23)cc1OC", "measured-metric": "reporter increase", "quantity-unit": "%", "observed-value": -3.35}
{"molecule": "COc1ccccc1NC(=O)C1=C(C)Nc2nc3ccccc3n2C1c1cccs1 (stereo not drawn)", "measured-metric": "reporter increase", "quantity-unit": "%", "observed-value": 5.69}
{"molecule": "O=C(CC1CCCCC1)NCc1ccc(F)cc1", "measured-metric": "reporter increase", "quantity-unit": "%", "observed-value": 8.97}
{"molecule": "CCCCCCCCCCCCN1C(=O)CSC1c1cccnc1 (stereo not drawn)", "measured-metric": "reporter increase", "quantity-unit": "%", "observed-value": -0.61}
{"molecule": "O=C(/C=C/Nc1ccc(S(=O)(=O)Nc2cnc3ccccc3n2)cc1)c1cccnc1", "measured-metric": "reporter increase", "quantity-unit": "%", "observed-value": -0.5}
{"molecule": "COc1cc(N2C(=O)CC3(CCCC3)CC2=O)cc(OC)c1OC", "measured-metric": "reporter increase", "quantity-unit": "%", "observed-value": -3.15}
{"molecule": "Cc1ccccc1NC(=S)NNC(=O)c1cccc(Br)c1", "measured-metric": "reporter increase", "quantity-unit": "%", "observed-value": -1.44}
{"molecule": "CC1CC(=O)Nc2ccccc2N1S(=O)(=O)c1cccs1 (stereo not drawn)", "measured-metric": "reporter increase", "quantity-unit": "%", "observed-value": 4.07}
{"molecule": "COC(=O)c1sccc1NC(=S)Nc1ccc(C)cc1", "measured-metric": "reporter increase", "quantity-unit": "%", "observed-value": 2.58}
{"molecule": "CCc1ccc(S(=O)(=O)Nc2ccc(C)c(NS(C)(=O)=O)c2)cc1", "measured-metric": "reporter increase", "quantity-unit": "%", "observed-value": -2.18}
{"molecule": "CCCCNC(=S)N/N=C1\\CCCCc2ccccc21", "measured-metric": "reporter increase", "quantity-unit": "%", "observed-value": 9.73}
{"molecule": "Cc1ccc(C)c(NC(=S)NNC(=O)c2csc(C)c2)c1", "measured-metric": "reporter increase", "quantity-unit": "%", "observed-value": 1.58}
{"molecule": "COc1ccc(-c2[nH]ncc2CN(C)Cc2cc(C)[nH]n2)c(F)c1", "measured-metric": "reporter increase", "quantity-unit": "%", "observed-value": -2.83}
{"molecule": "COc1cccc(-n2c(=S)[nH]c3c(oc4ccccc43)c2=O)c1", "measured-metric": "reporter increase", "quantity-unit": "%", "observed-value": 5.9}
{"molecule": "COc1ccccc1P(=O)(c1ccccc1)c1ccccc1NC(C)=O (stereo not drawn)", "measured-metric": "reporter increase", "quantity-unit": "%", "observed-value": 0.01}
{"molecule": "CC(CN1CCOCC1)c1ccccc1 (stereo not drawn)", "measured-metric": "reporter increase", "quantity-unit": "%", "observed-value": 11.8}
{"molecule": "O=C(Cc1ccc(F)cc1)NC1CCCC1", "measured-metric": "reporter increase", "quantity-unit": "%", "observed-value": -1.42}
{"molecule": "O=C(COC(=O)c1ccc(NS(=O)(=O)c2cccs2)cc1O)Nc1ccc(F)cc1", "measured-metric": "reporter increase", "quantity-unit": "%", "observed-value": -0.64}
{"molecule": "COc1ccc(CCN2C(=O)C3CC=C(C)CC3C2=O)cc1OC (stereo not drawn)", "measured-metric": "reporter increase", "quantity-unit": "%", "observed-value": 5.14}
{"molecule": "Cc1cc(C(=O)OCC(=O)Nc2nccs2)c2ccccc2n1", "measured-metric": "reporter increase", "quantity-unit": "%", "observed-value": -2.08}
{"molecule": "Cc1nnc(CN(C)Cc2cn[nH]c2-c2ccc(-c3ccccc3)cc2)o1", "measured-metric": "reporter increase", "quantity-unit": "%", "observed-value": 10.8}
